- Assay target: Bile acid receptor (Homo sapiens) (UniProt Q96RI1)
- Sequence (Q96RI1 whole entry): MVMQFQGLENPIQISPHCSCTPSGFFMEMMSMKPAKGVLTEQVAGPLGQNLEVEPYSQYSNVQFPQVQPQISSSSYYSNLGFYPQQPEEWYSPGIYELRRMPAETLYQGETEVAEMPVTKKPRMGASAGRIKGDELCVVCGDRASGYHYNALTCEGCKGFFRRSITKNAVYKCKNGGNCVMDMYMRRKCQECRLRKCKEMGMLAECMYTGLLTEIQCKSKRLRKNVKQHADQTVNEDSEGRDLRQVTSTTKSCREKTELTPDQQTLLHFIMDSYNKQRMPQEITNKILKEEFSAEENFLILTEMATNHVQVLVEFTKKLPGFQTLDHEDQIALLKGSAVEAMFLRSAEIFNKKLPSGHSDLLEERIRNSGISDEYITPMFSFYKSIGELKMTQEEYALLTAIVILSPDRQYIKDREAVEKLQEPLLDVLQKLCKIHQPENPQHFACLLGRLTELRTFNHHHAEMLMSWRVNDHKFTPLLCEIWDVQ
- Experimental protocol: Partial agonist activity at human FXR expressed in human HepG2 cells assessed as induction of transactivation at 10 uM after 18 hrs by luciferase reporter gene assay
- Type: functional, cell-based
The source made the active and inactive calls. The rule behind the calls is not given here.
Reply using exactly one outcome from Y = active, N = inactive

Sample answers from the record:
C=C1[C@@H](O)CC[C@@]2(C)[C@H]1CCC1=C3[C@H](O)C[C@H]([C@H](C)CC[C@H](CC)C(C)C)[C@@]3(C)CC[C@@]12O = N
C=C1[C@@H](O)CC[C@@]2(C)[C@H]1C[C@@H](O)C1=C3[C@H](O)C[C@H]([C@H](C)CC[C@H](CC)C(C)C)[C@@]3(C)CC[C@@H]12 = N
C=C1[C@@H](O)CC[C@]2(C)C3=CC[C@@]4(C)C(=CC[C@@H]4[C@H](C)CC[C@H](CC)C(C)C)C3=CC[C@@H]12 = N
C=C1[C@@H](O)CC[C@]2(C)C3=C(CC[C@@H]12)[C@]1(O)[C@@H](O)C[C@H]([C@H](C)CC[C@H](CC)C(C)C)[C@@]1(C)C[C@@H]3O = Y
C=C1[C@@H](O)CC[C@@]2(C)[C@H]1CCC1=C3[C@H](O)C[C@H]([C@H](C)CC[C@@H](C)C(C)C)[C@@]3(C)CC[C@@]12O = N

State the result this test recorded for C=C1[C@@H](O)CC[C@]2(C)C3=C(CC[C@@H]12)[C@@H]1C(=O)C[C@H]([C@H](C)CC[C@H](CC)C(C)C)[C@@]1(C)CC3 .
N

Here is the next molecule: C=C1[C@@H](O)CC[C@]2(C)C3=C(CC[C@@H]12)[C@]1(O)[C@@H](O)C[C@H]([C@H](C)CC[C@H](CC)C(C)C)[C@@]1(C)C[C@H]3O
N

Here is the next molecule: C=C1[C@@H](O)CC[C@]2(C)C3=CC[C@@]4(C)C(=CC[C@@H]4[C@H](C)CC[C@@H](C)C(C)C)C3=CC[C@@H]12
N

Here is the next molecule: C=C1[C@@H](O)CC[C@@]2(C)[C@H]1CCC1=C3[C@H](O)C[C@H]([C@H](C)CC[C@H](CC)C(C)C)[C@@]3(C)CC[C@@]12OC
N
